# Test system: Saccharomyces cerevisiae growth inhibition, permissive control
# assay-details: yeast lifespan-shortening chemical project counter-assay, dose-response inhibition of growth under permissive conditions (AID 850);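 further: growth read as optical density after one day of incubation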
The source made the active and inactive calls. How the calls were made is not given here.
Labels: Yes = active, No = inactive

{"columns": ["compound", "classification"],
 "data": [
  ["O=C(Oc1csc(=S)n1C(=O)c1ccccc1)c1ccccc1", "No"],
  ["Cn1c(-c2ccco2)nc2cc3ccccc3cc21", "Yes"],
  ["O=C(O)c1cc(-c2ccc(/C=N/Nc3ccc(Cl)cc3)o2)ccc1Cl", "Yes"],
  ["COc1ccc(S(=O)(=O)n2oc(=O)cc2-c2ccccc2)cc1OC", "No"],
  ["O=S(=O)(Nc1ccc(-n2cccc2)cc1)c1ccc(Cl)cc1Cl", "No"],
  ["O=S(=O)(/N=C(\\Sc1ccc(Cl)cc1)c1ccccc1)c1ccccc1", "Yes"],
  ["CCCn1c(CNc2ccccc2O)nc2ccccc21", "No"],
  ["CN1C(=O)C(O)(CC(=O)c2ccccc2O)c2cc(Br)ccc21 (configuration not stated)", "No"],
  ["c1ccc(-n2c(-c3ccco3)nnc2-c2ccco2)cc1", "No"],
  ["Cc1ccc(COc2ccc(Br)cc2/C=N/O)cc1", "No"],
  ["COc1ccccc1C(=O)NNC(=S)NC(=O)c1ccco1", "No"],
  ["O=C(OCn1ncc(Cl)c(Cl)c1=O)c1cccc(C(F)(F)F)c1", "No"]
]}

---

# assay-details: yeast lifespan-shortening chemical project counter-assay, dose-response inhibition of growth under permissive conditions (AID 850);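 further: growth read as optical density after one day of incubation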
# condition-notes: Saccharomyces cerevisiae growth inhibition, permissive control; measured here: maximum growth inhibition; at 6.25 µM; stronger effect = higher value
Reported inhibition values are given for each entry in this list.
parameter-measured: inhibition (%)

{"columns": ["structure-smiles", "parameter-measured", "result-unit", "observed-value"],
 "data": [
  ["COc1ccc(/C(C)=N/NC(=O)c2ccc(CSc3cccc4cccnc34)cc2)cc1OC", "inhibition", "%", 12.5],
  ["Cc1ccc(/C=C2\\C(=O)NC(=S)N(c3ccccc3F)C2=O)s1", "inhibition", "%", 29],
  ["Oc1c(Cl)cc(Cl)c(Cl)c1Cc1c(O)c(Cl)cc(Cl)c1Cl", "inhibition", "%", 23.3]
]}

---

# Tested on: Saccharomyces cerevisiae growth inhibition, permissive control
# assay-details: yeast lifespan-shortening chemical project counter-assay, dose-response inhibition of growth under permissive conditions (AID 850);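 further: growth read as optical density after one day of incubation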
Calls of active or inactive are those of the source. How the calls were made is not given here.
Labels: Yes for active, No for inactive

{"columns": ["molecule", "classification"],
 "data": [
  ["Cc1ccc2[nH]c3c(c2c1)CCc1cn[nH]c1-3", "Yes"],
  ["Cc1ccc(/C=C/C(=O)c2ccccc(=O)c2O)cc1C", "Yes"],
  ["CC1CCCC2(C1)NC(=S)c1c(sc3c1CCCC3)N2 (stereo unspecified)", "No"],
  ["COc1ccc(OCCNC2CCCC2)cc1", "No"],
  ["Cc1ccc(C(NC(=O)C(C)C)c2cc([N+](=O)[O-])c3cccnc3c2O)cc1 (stereo unspecified)", "Yes"],
  ["N/C(Cc1ccc(Cl)cc1Cl)=N\\OC(=O)c1cccs1", "Yes"],
  ["CCn1c(=O)c(C(=O)Nc2nc3ccccc3[nH]2)c(O)c2ccccc21", "No"],
  ["Cc1nnc(C)n1/N=C/c1cc(Br)cc(Br)c1O", "Yes"],
  ["O=C(O)Cc1ccc2sc(-c3ccccc3)nc2c1", "No"],
  ["Cc1ccc(/C(N)=N/OC(=O)c2ccc(C)cc2Cl)cc1", "Yes"],
  ["CC1=C(C)/C(=N\\OS(=O)(=O)c2ccc(C)cc2)C=CC1=O", "Yes"],
  ["Nc1c(C(=O)NCCc2ccccc2)c2nc3ccccc3nc2n1CCN1CCOCC1", "Yes"],
  ["CCOc1cc(C2CC(=O)N3CN(C4CCCCC4)CSC3=C2C#N)ccc1O (stereo unspecified)", "No"],
  ["Cc1cc(O)c(/C=N/Nc2cccc(Cl)c2)c(=O)o1", "Yes"],
  ["Oc1cccc(C=NCc2ccccc2)c1O", "Yes"],
  ["CCn1c(Sc2nc(C)nc3scc(-c4cccs4)c23)n[nH]c1=O", "Yes"],
  ["O=C(O)c1cc2c(s1)-c1ccccc1CC2", "Yes"],
  ["Oc1cccc2ccc(Nc3ccccn3)nc12", "Yes"],
  ["CC(=O)NC(=S)c1c(N)n(Cc2ccccc2)c(=O)n(C)c1=O", "No"],
  ["O=C(CSCc1ccco1)Nc1cc(C(F)(F)F)ccc1N1CCOCC1", "No"],
  ["O=C(O)C1C2C=CC(O2)C1C(=O)NC1CCCc2ccccc21 (stereo unspecified)", "No"],
  ["CCOC(=O)c1cc([N+](=O)[O-])c([N+](=O)[O-])cc1NC(C)=O", "Yes"],
  ["Cc1cc2nc(C)n3c4ccccc4nc3n2n1", "Yes"],
  ["CCC1CCCCN1C(=O)CSc1nnc(-c2ccc(OC)cc2)o1 (stereo unspecified)", "No"],
  ["Cc1ccc(-n2c(C)cc(C(=O)COC(=O)c3ccc[nH]c3=O)c2C)cc1C", "Yes"],
  ["CCCCc1ccc(NC(=S)Nc2ccc(Nc3ccc(OC)cc3)cc2)cc1", "No"],
  ["COCCN1CSC(=S)N(Cc2ccco2)C1", "Yes"],
  ["O=[N+]([O-])c1cc(CN2CCCC2)c2cccnc2c1O", "No"],
  ["C=CCn1c2ccccc2c2nnc(SCN3C(=O)c4ccccc4C3=O)nc21", "No"],
  ["O=C(Nc1cccc(C(F)(F)F)c1)C(Sc1cccc[n+]1[O-])c1ccccc1 (stereo unspecified)", "Yes"],
  ["O=C(Oc1c(Cl)cc(Cl)c2cccnc12)c1cccc([N+](=O)[O-])c1", "Yes"],
  ["COc1cccc(/C=N/Nc2ncc(C(F)(F)F)cc2Cl)c1O", "No"],
  ["Cc1cc(=O)[nH]c(SCc2nc3ccccc3s2)n1", "No"],
  ["Nc1ccc(C(=O)OCC(=O)Nc2ccc3c(c2)OCO3)cc1[N+](=O)[O-]", "No"],
  ["O=C(Nc1cc(C(F)(F)F)ccc1Cl)C(Sc1cccc[n+]1[O-])c1ccccc1 (stereo unspecified)", "Yes"],
  ["O=C(Nc1cccc(N=Cc2cc(Cl)cc(Br)c2O)c1)c1ccco1", "Yes"],
  ["CC(Sc1cccc[n+]1[O-])C(=O)Nc1cccc(S(=O)(=O)N2CCOCC2)c1 (stereo unspecified)", "Yes"],
  ["O=C(Nc1cccc(N=Cc2cc(Br)cc(Br)c2O)c1)c1ccco1", "Yes"],
  ["COc1ccc(-c2cc(C(=O)N3CCN(c4ncccn4)CC3)c3ccccc3n2)c(OC)c1", "No"],
  ["O=C1OCC(CO)(CO)N=C1NNc1cc(Cl)ccc1Cl", "Yes"],
  ["O=C(N/N=C/c1sc2ccccc2c1O)c1cccc2ccccc12", "Yes"],
  ["COc1ccc(-c2n[nH]c(C(F)(F)F)c2-c2cc3ccccc3o2)c(O)c1", "Yes"],
  ["CC(C)(C)c1ccc(C(=O)NC(=S)NNC(=O)c2cccs2)cc1", "Yes"],
  ["CCOC(=O)C1C(C)N=C2SCC(=O)N2C1c1cccc(Br)c1 (stereo unspecified)", "No"],
  ["CC1CCN(c2nc(/C=C/c3ccccc3)nc3ccccc23)CC1", "Yes"],
  ["CCc1cc2c(=O)[nH]c(-c3ccccn3)nc2s1", "Yes"]
]}

---

# assay-details: yeast lifespan-shortening chemical project counter-assay, dose-response inhibition of growth under permissive conditions (AID 850);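 further: growth read as optical density after one day of incubation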
# condition-notes: Saccharomyces cerevisiae growth inhibition, permissive control; measured here: maximum growth inhibition; at 12.5 µM; stronger effect = higher value
Each entry below lists one item and its recorded inhibition value.

{"columns": ["structure-smiles", "inhibition (%)"],
 "data": [
  ["COc1ccc2nc(NC(=S)N(C)C)sc2c1", 35],
  ["CCOC(=O)/C(=N\\Nc1cccc(C(F)(F)F)c1)N(CCOC)CCOC", -1.36],
  ["O=C(Nc1nc(-c2ccccn2)cs1)c1ncc(Cl)c(Cl)c1Cl", 13.1],
  ["Oc1ccc(N=Nc2cccc(Cl)c2)cc1C=Nc1ccc(N2CCOCC2)cc1", 2.01],
  ["Cc1ccc2c(c1)C(=NC1CCCCC1)c1cc3ccccc3nc1-2", 22.8],
  ["CCCCCC/C(C)=C1/SC(=S)NC1=O", 15.5]
]}

---

# System: Saccharomyces cerevisiae growth inhibition, permissive control
# assay-details: yeast lifespan-shortening chemical project counter-assay, dose-response inhibition of growth under permissive conditions (AID 850);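 further: growth read as optical density after one day of incubation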
Active and inactive are the calls of the source. No rule for the calls is given here.
Possible outcomes: active, inactive

{"columns": ["molecule", "classification"],
 "data": [
  ["Fc1ccc(N/N=C2/CC(c3ccccc3)Oc3ccccc32)c(F)c1 (stereo unspecified)", "active"],
  ["CCN1CCN(C(=O)C(NS(=O)(=O)c2ccc3nc(C)sc3c2)C(C)C)CC1 (stereo unspecified)", "inactive"],
  ["O=c1oc2ccccc2c(O)c1/C=C1\\C=Nc2ccccc21", "active"],
  ["O=C(O)CCC(=O)N1CCN(c2nc(-c3ccccc3Cl)c3cc(Br)ccc3n2)CC1", "active"],
  ["Cc1ccc(-c2[nH]nc(N)c2N=Nc2ccccc2C)cc1", "inactive"],
  ["O=C1C=C(c2ccccc2)C(=O)N1Nc1ccccc1", "active"]
]}
